Recorded values, source patent US20210032312A1.

Entries and their Cyno T-cell Binding 2 uM (MFI) values follow.
Target: T1, cynomolgus monkey CD8A on primary cynomolgus monkey CD8+ T cells (cynomolgus monkey, UniProt P01732 23-235 (human entry))
T1 construct: also called Cyno CD8alpha
T1 sequence (P01732 other isoform, or with tags, fused parts or gaps limits assumed): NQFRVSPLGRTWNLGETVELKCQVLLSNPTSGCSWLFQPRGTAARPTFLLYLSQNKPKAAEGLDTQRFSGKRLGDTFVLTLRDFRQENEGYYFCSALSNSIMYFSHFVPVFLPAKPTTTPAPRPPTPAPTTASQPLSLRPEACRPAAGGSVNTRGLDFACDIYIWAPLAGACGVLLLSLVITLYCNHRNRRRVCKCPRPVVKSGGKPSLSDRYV
Experiment: flow cytometry, cyno CD8+ T cells, 2 uM FN3

>  <binder>
P282BR9P1357_E5 (designed binder, FN3 domain) LPAPKNLVVSRVTEDSARLSWWPRKYQRPFDSFLIQYQESEKVGEAIVLTVPGSERSYDLTGLKPGTEYTVSIYGVDIEWIGNRPIASNPLSAIFTT

>  <Cyno T-cell Binding 2 uM (MFI)>
10600 MFI

$$$$
>  <binder>
P282DR9P1359_F11 (designed binder, FN3 domain) LPAPKNLVVSRVTEDSARLSWTAPDAAFDSFDIFYPELPIHGEAIVLTVPGSERSYDLTGLKPGTEYWVNITGVKGGDFSWPLSAIFTT

>  <Cyno T-cell Binding 2 uM (MFI)>
86700 MFI

$$$$
>  <binder>
P283BR9P1363_C8 (designed binder, FN3 domain) LPAPKNLVVSRVTEDSARLSWAKTSDLHPLFDSFLIQYQESEKVGEAIVLTVPGSERSYDLTGLKPGTEYTVSIYGVDVKWEGNRPVASNPLSAIFTT

>  <Cyno T-cell Binding 2 uM (MFI)>
37200 MFI

$$$$
>  <binder>
P282ER9P1360_D11 (designed binder, FN3 domain) LPAPKNLVVSRVTEDSARLSWTAPDAAFDSFGILYYEPVDSGEAITLPVPGSERSYDLTGLKPGTEYFVIIVGVKGGYPSIPLGAAFTT

>  <Cyno T-cell Binding 2 uM (MFI)>
76600 MFI

$$$$
>  <binder>
P282DR9P1359_E6 (designed binder, FN3 domain) LPAPKNLVVSRVTEDSARLSWTAPDAAFDSFWIAYPEWPVQGEAIVLTVPGSERSYDLTGLKPGTEYFVVIQGVKGGTPSWPLSAIFTT

>  <Cyno T-cell Binding 2 uM (MFI)>
61700 MFI

$$$$
>  <binder>
P282FR9P1361_F2 (designed binder, FN3 domain) LPAPKNLVVSRVTEDSARLSWTAPDAAFDSFDIWYAEYGYPGEAIVLTVPGSERSYDLTGLKPGTEYDVAISGIKGGPRSYPLSAIFTT

>  <Cyno T-cell Binding 2 uM (MFI)>
10900 MFI

$$$$
>  <binder>
P282AR9P1356_H6 (designed binder, FN3 domain) LPAPKNLVVSRVTEDSARLSWRKRANSFDSFLIQYQESEKVGEAIVLTVPGSERSYDLTGLKPGTEYTVSIYGVHVEYDQHGRPRWSNPLSAIFTT

>  <Cyno T-cell Binding 2 uM (MFI)>
14400 MFI

$$$$
>  <binder>
P282DR9P1359_A8 (designed binder, FN3 domain) LPAPKNLVVSRVTEDSARLSWTAPDAAFDSFRIAYPEWPVQGEAIVLTVPGSERSYDLTGLKPGTEYFVIIYGVKGGELSPPLSAIFTT

>  <Cyno T-cell Binding 2 uM (MFI)>
70300 MFI

$$$$
>  <binder>
P282BR9P1357_H3 (designed binder, FN3 domain) LPAPKNLVVSRVTEDSARLSWKKREYQDPGFDSFLIQYQESEKVGEAIVLTVPGSERSYDLTGLKPGTEYTVSIYGVDVKWEGNRPVASNPLSAIFTT

>  <Cyno T-cell Binding 2 uM (MFI)>
27100 MFI

$$$$
